Data provenance: the OligoGym collection

Biological target: UBE2M; note: test concentration or dose not given here
Experiment: reporter assay of Huesken 2005
Conditions: siRNA
Oligonucleotides are written 5' to 3', each unit as a sugar letter and its base; * is a phosphorothioate linkage, no mark a phosphodiester; rarer units and linkages stand in square brackets, end groups in braces. Plain capitals give the bases only. d = 2'-deoxy (DNA); r = 2'-OH (RNA)
readout: normalised inhibition (eCFP-eYFP dual reporter) (%)
Give the number; % is assumed, so skip it.

// map sense rGrArUrArUrCrArGrCrUrUrCrUrCrArGrArUrCdTdT / antisense rGrArUrCrUrGrArGrArArGrCrUrGrArUrArUrCdAdC to recorded normalised inhibition (eCFP-eYFP dual reporter) (system: UBE2M); note: test concentration or dose not given here
60.5

Okay, and sense rCrCrUrGrArUrGrArGrGrGrCrUrUrCrUrArCrAdTdT / antisense rUrGrUrArGrArArGrCrCrCrUrCrArUrCrArGrGdAdC ?
77.9

Okay, and sense rGrArCrArArUrGrGrUrCrUrArUrCrArCrCrCrCdTdT / antisense rGrGrGrGrUrGrArUrArGrArCrCrArUrUrGrUrCdTdC ?
61.8

Okay, and sense rCrArCrCrCrCrArArCrArUrUrGrArCrCrUrCrGdTdT / antisense rCrGrArGrGrUrCrArArUrGrUrUrGrGrGrGrUrGdAdT ?
62.5

Okay, and sense rCrGrGrGrGrUrGrGrCrUrArCrArUrCrGrGrCrUdTdT / antisense rArGrCrCrGrArUrGrUrArGrCrCrArCrCrCrCrGdCdA ?
54.3

Okay, and sense rArGrArArCrArArCrCrGrGrCrGrGrCrUrGrUrUdTdT / antisense rArArCrArGrCrCrGrCrCrGrGrUrUrGrUrUrCrUdGdC ?
61.2

Okay, and sense rGrUrCrArUrCrUrGrUrCrCrUrGrArUrGrArGrGdTdT / antisense rCrCrUrCrArUrCrArGrGrArCrArGrArUrGrArCdCdA ?
58.9

Okay, and sense rArGrUrCrCrUrUrArCrGrArUrArArArCrUrCrCdTdT / antisense rGrGrArGrUrUrUrArUrCrGrUrArArGrGrArCrUdGdG ?
60.6

Okay, and sense rGrArGrGrArGrUrCrGrGrCrGrGrGrCrGrGrCrAdTdT / antisense rUrGrCrCrGrCrCrCrGrCrCrGrArCrUrCrCrUrCdCdT ?
59.9

Okay, and sense rArUrCrCrArGrArArGrGrArCrArUrArArArCrGdTdT / antisense rCrGrUrUrUrArUrGrUrCrCrUrUrCrUrGrGrArUdCdC ?
56.4

Okay, and sense rGrGrGrUrGrGrCrUrArCrArUrCrGrGrCrUrCrCdTdT / antisense rGrGrArGrCrCrGrArUrGrUrArGrCrCrArCrCrCdCdG ?
58.1

Okay, and sense rCrUrUrCrArArGrCrUrGrGrUrCrArUrCrUrGrUdTdT / antisense rArCrArGrArUrGrArCrCrArGrCrUrUrGrArArGdTdT ?
77

Okay, and sense rArGrArArGrArArGrGrArGrGrArGrGrArGrUrCdTdT / antisense rGrArCrUrCrCrUrCrCrUrCrCrUrUrCrUrUrCrUdGdC ?
59.4

Okay, and sense rArGrGrArGrGrArGrGrArGrUrCrGrGrCrGrGrGdTdT / antisense rCrCrCrGrCrCrGrArCrUrCrCrUrCrCrUrCrCrUdTdC ?
41.7

Okay, and sense rArUrCrUrCrUrUrCrUrUrGrGrArGrCrCrCrArAdTdT / antisense rUrUrGrGrGrCrUrCrCrArArGrArArGrArGrArUdAdC ?
77.1

Okay, and sense rArUrGrGrUrCrUrArUrCrArCrCrCrCrArArCrAdTdT / antisense rUrGrUrUrGrGrGrGrUrGrArUrArGrArCrCrArUdTdG ?
71.3

Okay, and sense rArCrGrArGrCrUrGrArArCrCrUrGrCrCrCrArAdTdT / antisense rUrUrGrGrGrCrArGrGrUrUrCrArGrCrUrCrGrUdTdT ?
66

Okay, and sense rArArGrArGrUrGrGrGrArArGrUrUrUrGrUrGrUdTdT / antisense rArCrArCrArArArCrUrUrCrCrCrArCrUrCrUrUdGdT ?
85.1
